systemTested: TD4, minimal TACC domain (TD) fragment of XTACC3 (Xenopus)
protocolNotes: ITC; TD4 (10–20 μM) in the cell, peptide (400–500 μM) in the syringe; 25 °C; 20 mM HEPES pH 7.5, 150 mM NaCl, 0.25 mM TCEP; one-site model
measureName: pKd
// pKd: -log10(molar conc.)

Look up pKd for this binder: STNIDDLKKRLERIKS [pCt, synthetic peptide of XMAP-Ct residues 46-61]
4.96
